Listing of entries alongside the reported pIC50.
assay protocol: Inhibition of almond beta glucosidase
Design: species or system Prunus dulcis
pIC50: −log10 of the molar value.
observable: pIC50

| test smiles | recorded number |
| --- | --- |
| O=C(Nc1cccs1)O/N=C1\N[C@H](CO)[C@@H](O)[C@H](O)[C@H]1O | 5.57 |
| OC[C@H]1N/C(=N/O)[C@H](O)[C@@H](O)[C@@H]1O | 4.10 |
| CC(C)(C)NC(=O)O/N=C1\N[C@H](CO)[C@@H](O)[C@H](O)[C@H]1O | 4.34 |
| O=C(Nc1ccc2nsnc2c1)O/N=C1\N[C@H](CO)[C@@H](O)[C@H](O)[C@H]1O | 5.21 |
| O=C(Nc1ccccc1)O/N=C1\N[C@H](CO)[C@@H](O)[C@H](O)[C@H]1O | 4.51 |

---

assay protocol: Inhibition of almond beta glucosidase
Parameters: species or system Prunus dulcis
pIC50: −log10 of the molar value.
observable: pIC50

| compound | bound sign | recorded number |
| --- | --- | --- |
| O=C(NC12CC3CC(CC(C3)C1)C2)O/N=C1\N[C@H](CO)[C@@H](O)[C@H](O)[C@H]1O | = | 4.84 |
| CCCCCCCCCN1C[C@H](O)[C@@H](O)[C@H](O)[C@H]1CO | < | 4.00 |
| OC[C@H]1CNC[C@@H](O)[C@@H]1O [AFEGOSTAT] | < | 4.00 |
| O=C(Nc1cccc2ccccc12)O/N=C1\N[C@H](CO)[C@@H](O)[C@H](O)[C@H]1O | = | 4.97 |
| CCCCCCCCCCCCNC(=O)O/N=C1\N[C@H](CO)[C@@H](O)[C@H](O)[C@H]1O | < | 4.00 |

---

measured on: Lysosomal acid glucosylceramidase (Homo sapiens, UniProt P04062)
Sequence (P04062 whole entry): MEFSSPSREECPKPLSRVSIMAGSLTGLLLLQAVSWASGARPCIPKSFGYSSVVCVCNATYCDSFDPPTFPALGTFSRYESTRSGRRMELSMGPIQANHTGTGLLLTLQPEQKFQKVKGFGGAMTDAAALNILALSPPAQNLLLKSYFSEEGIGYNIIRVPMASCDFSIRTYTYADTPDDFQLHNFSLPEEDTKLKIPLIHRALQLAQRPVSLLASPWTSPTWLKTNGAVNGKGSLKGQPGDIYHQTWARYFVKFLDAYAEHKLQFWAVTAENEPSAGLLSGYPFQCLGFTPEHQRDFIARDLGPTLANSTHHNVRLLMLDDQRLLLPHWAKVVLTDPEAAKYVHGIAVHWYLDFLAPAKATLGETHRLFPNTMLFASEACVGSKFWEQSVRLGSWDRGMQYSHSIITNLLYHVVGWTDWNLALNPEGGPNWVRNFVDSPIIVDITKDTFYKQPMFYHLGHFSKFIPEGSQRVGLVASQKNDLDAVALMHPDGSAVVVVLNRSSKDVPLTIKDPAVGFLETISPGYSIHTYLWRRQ
assay protocol: Inhibition of human recombinant imiglucerase using 4-MU-beta-D-Glu as substrate at pH 7.0 after 30 mins by fluorometric analysis
Listed here: items and their measured IC50.
observable: IC50 (µM)

| test smiles | observable | unit of measurement | recorded number |
| --- | --- | --- | --- |
| O=C(Nc1ccc2nsnc2c1)O/N=C1\N[C@H](CO)[C@@H](O)[C@H](O)[C@H]1O | IC50 | µM | 12.5 |
| O=C(NC12CC3CC(CC(C3)C1)C2)O/N=C1\N[C@H](CO)[C@@H](O)[C@H](O)[C@H]1O | IC50 | µM | 8.37 |
| OC[C@H]1N/C(=N/O)[C@H](O)[C@@H](O)[C@@H]1O | IC50 | µM | 65.8 |
| CSc1ccc(NC(=O)O/N=C2\N[C@H](CO)[C@@H](O)[C@H](O)[C@H]2O)cc1 | IC50 | µM | 17.2 |
| O=C(Nc1cccc2ccccc12)O/N=C1\N[C@H](CO)[C@@H](O)[C@H](O)[C@H]1O | IC50 | µM | 1.43 |
| O=C(Nc1c(F)cccc1F)O/N=C1\N[C@H](CO)[C@@H](O)[C@H](O)[C@H]1O | IC50 | µM | 21.9 |
| CCCCCCCCCCCCNC(=O)O/N=C1\N[C@H](CO)[C@@H](O)[C@H](O)[C@H]1O | IC50 | µM | 5.74 |
| O=C(Nc1ccccc1)O/N=C1\N[C@H](CO)[C@@H](O)[C@H](O)[C@H]1O | IC50 | µM | 19.3 |
| CC(C)(C)NC(=O)O/N=C1\N[C@H](CO)[C@@H](O)[C@H](O)[C@H]1O | IC50 | µM | 21.5 |
| O=C(Nc1cccs1)O/N=C1\N[C@H](CO)[C@@H](O)[C@H](O)[C@H]1O | IC50 | µM | 13.2 |
| O=C(Nc1ccc(Oc2ccccc2)cc1)O/N=C1\N[C@H](CO)[C@@H](O)[C@H](O)[C@H]1O | IC50 | µM | 3.32 |
| O=C(Nc1c(Cl)cccc1C(F)(F)F)O/N=C1\N[C@H](CO)[C@@H](O)[C@H](O)[C@H]1O | IC50 | µM | 23.5 |
